Reference source for all entries: patent US20250011288A1

Molecular target: human RXFP1 (Homo sapiens)
Sequence (Q9HBX9 1-757): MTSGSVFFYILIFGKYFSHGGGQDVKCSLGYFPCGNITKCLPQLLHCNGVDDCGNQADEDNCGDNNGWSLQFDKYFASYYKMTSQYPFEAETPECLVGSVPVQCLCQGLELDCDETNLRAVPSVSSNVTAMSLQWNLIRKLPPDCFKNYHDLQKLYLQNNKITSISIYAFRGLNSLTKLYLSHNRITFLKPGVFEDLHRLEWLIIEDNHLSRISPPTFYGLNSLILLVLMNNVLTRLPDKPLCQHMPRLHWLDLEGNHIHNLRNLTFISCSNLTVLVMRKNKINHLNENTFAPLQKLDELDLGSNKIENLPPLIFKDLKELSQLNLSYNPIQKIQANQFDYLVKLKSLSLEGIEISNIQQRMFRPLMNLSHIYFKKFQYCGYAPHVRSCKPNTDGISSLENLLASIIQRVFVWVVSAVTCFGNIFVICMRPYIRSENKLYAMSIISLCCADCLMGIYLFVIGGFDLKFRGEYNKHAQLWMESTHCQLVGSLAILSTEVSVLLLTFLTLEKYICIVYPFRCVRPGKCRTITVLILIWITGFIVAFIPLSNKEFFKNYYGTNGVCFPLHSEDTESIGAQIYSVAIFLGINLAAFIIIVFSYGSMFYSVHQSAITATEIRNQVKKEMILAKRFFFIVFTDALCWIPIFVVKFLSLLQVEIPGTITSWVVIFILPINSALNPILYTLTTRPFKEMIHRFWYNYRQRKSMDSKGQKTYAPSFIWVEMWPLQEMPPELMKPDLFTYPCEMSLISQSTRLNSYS
Assay: human RXFP1 (hRXFP1) HEK293 cAMP assay (HTRF)
Conditions: HEK293 cells stably expressing human RXFP1, 30 min at room temperature
pEC50: −log10 of the molar value.
pEC50 below 8 gives 0 (no); pEC50 at or above it gives 1 (yes).

Record excerpt, results attached:
Assess whether reported pEC50 for COc1ncc(C2=NOC3COCC23)cc1C(=O)N[C@H]1[C@@H](C(=O)N[C@H](C)C2(C)CC2)[C@H]2CC[C@@H]1/C2=C\c1csc(C(F)(F)F)n1 (some centres unmarked) sits at 8 or higher.
1 (yes)

Assess whether reported pEC50 for COc1ncc(C2=NOC3OCCCC23)cc1C(=O)N[C@H]1[C@@H](C(=O)Nc2ccc(F)c(C(F)(F)F)c2)[C@H]2CC[C@@H]1/C2=C\C1CCCC1 (some centres unmarked) sits at 8 or higher.
1 (yes)

Next:
Assess whether reported pEC50 for `O=C(O)c1ccc(F)c(-c2cnc(OCCO)c(C(=O)N[C@H]3[C@@H](C(=O)Nc4ccc(F)c(C(F)(F)F)c4)[C@H]4CC[C@@H]3/C4=C\C(F)(F)F)c2)c1` sits at 8 or higher.
0 (no)

Assess whether reported pEC50 for `COc1ncc(-c2cc([C@H](OC(=O)NC3CC3)C(F)(F)F)ccc2F)cc1C(=O)N[C@H]1[C@@H](C(=O)Nc2ccc(F)c(C(F)(F)F)c2)[C@H]2CC[C@@H]1/C2=C\C1CC(F)(F)C1` sits at 8 or higher.
1 (yes)

Assess whether reported pEC50 for COc1ncc(C2=NOC3CC(C(O)C(F)(F)F)CC23)cc1C(=O)N[C@H]1[C@@H](C(=O)Nc2ccc(F)c(C(F)(F)F)c2)[C@H]2CC[C@@H]1/C2=C\C1CC1 (some centres unmarked) [Example 135] sits at 8 or higher.
1 (yes)

Assess whether reported pEC50 for O=C(O)c1ccc(F)c(-c2cc(C(=O)N[C@@H]3C4CCC(/C4=C/C(F)(F)F)[C@@H]3C(=O)Nc3ccc(F)c(C(F)(F)F)c3)c(OCCO)cn2)c1 (some centres unmarked) sits at 8 or higher.
0 (no)

Assess whether reported pEC50 for COc1ncc(C2=NOC3CC(CO)CC23)cc1C(=O)N[C@@H]1C2CCC(/C2=C/C2CC2)[C@@H]1C(=O)Nc1ccc(F)c(C(F)(F)F)c1 (single isomer, unassigned) [Example 68] sits at 8 or higher.
0 (no)

Assess whether reported pEC50 for COc1ncc(C2=NOC3CC(O)CC23)cc1C(=O)N[C@H]1[C@@H](C(=O)Nc2ccc(F)c(C(F)(F)F)c2)[C@H]2CC[C@@H]1/C2=C\C1CC1 (some centres unmarked) sits at 8 or higher.
1 (yes)

Assess whether reported pEC50 for COc1cnc(-c2cccc(C(=O)O)c2)cc1C(=O)N[C@@H]1C2CCC(/C2=C/C(F)(F)F)[C@@H]1C(=O)Nc1ccc(F)c(C(F)(F)F)c1 (some centres unmarked) sits at 8 or higher.
0 (no)

Assess whether reported pEC50 for COc1ncc(C2=NOC3CC(C(O)C(F)(F)F)CC23)cc1C(=O)N[C@H]1[C@@H](C(=O)Nc2ccc(F)c(C(F)(F)F)c2)[C@H]2CC[C@@H]1/C2=C\C1CC1 (some centres unmarked) [Example 131] sits at 8 or higher.
1 (yes)
